# experimental_target: GST-Dm-Relish (Drosophila melanogaster, UniProt Q94527 99-473)
# Sequence: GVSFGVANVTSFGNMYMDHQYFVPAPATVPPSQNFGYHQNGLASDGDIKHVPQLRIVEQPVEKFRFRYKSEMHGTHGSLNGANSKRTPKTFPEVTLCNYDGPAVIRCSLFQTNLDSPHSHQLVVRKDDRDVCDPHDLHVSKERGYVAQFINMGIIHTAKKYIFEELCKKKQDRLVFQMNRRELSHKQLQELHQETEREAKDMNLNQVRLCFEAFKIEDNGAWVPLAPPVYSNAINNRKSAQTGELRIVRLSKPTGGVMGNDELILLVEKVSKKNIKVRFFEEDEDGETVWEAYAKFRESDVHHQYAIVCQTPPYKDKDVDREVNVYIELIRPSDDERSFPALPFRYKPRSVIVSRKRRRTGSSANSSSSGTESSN
# protocol_details: protein-binding microarray (PBM); PBM: ~300 nM protein, 6 mM HEPES pH 7.8, 80 mM KCl, 0.5 mM EDTA, 0.5 mM EGTA, 6% glycerol, 35 ng/ul poly-dIdC, 1% milk, 1 h, room temperature; Ap Aiptasia and Nv Nematostella (sea anemones) / Co Capsaspora / Aq Amphimedon (sponge) / Dm Drosophila / Hu human; RHD is the Rel homology domain; high values mean tight binding
# experimental_conditions: dsDNA, one strand shown
For each entry below, report its binding signal value.
One number for each entry, in z-score.

Worked examples, 3 sequences total:
>>> result_value("CCGATTAACATCAGGGGAATGCATGATGTTAATCGGGTCTTGATTCGCTTGACGCTGCTG")
3.2
>>> result_value("CCGATTAACATCAGGGGTATTACTGATGTTAATCGGGTCTTGATTCGCTTGACGCTGCTG")
3.55
>>> result_value("CCGATTAACATCAAATAAGTCCCTGATGTTAATCGGGTCTTGATTCGCTTGACGCTGCTG")
5.96

List the reported binding signal of each sequence below.
1. CCGATTAACATCAGGCACCCCCCTGATGTTAATCGGGTCTTGATTCGCTTGACGCTGCTG
2. CCGATTAACATCAAGGGGGGGAGTGATGTTAATCGGGTCTTGATTCGCTTGACGCTGCTG

1: 5.16; 2: 3.56
